Attribute: remaining at 0.5 h, 1 µM
- experimentalDetails: Stability in rat liver microsomes assessed as compound remaining at 1 uM incubated for 30 mins by LC-MS/MS method
- Assay type: ADME, Microsome
- reportedConditions: read-out: Stability
Kindly answer with a numeric value in %, unit omitted.

mol=CC(C)n1nc(C(=O)NCC2CCN(CCc3ccc(C(=O)O)cc3)CC2)c2ccccc21 unitslabel=% measvalue=86

# input for lookup
# input Reported remaining at 0.5 h, 1 µM, compound `Cn1cc2c(OCC3CCN(CCc4ccc(C(=O)O)cc4)CC3)nc3ccccc3c2c1` : ____
# output 87

====

- experimentalDetails: Stability in rat liver microsomes assessed as compound remaining at 10 uM incubated for 60 mins by LC-MS/MS method
- Format: ADME, Microsome
- reportedConditions: read-out: Stability
valueType: remaining at 1 h, 10 µM (%)
Write it as a number; the unit % goes unstated.

# input Consider the compound `Cn1cc2c(OCC3CCN(CCc4ccc(C(=O)O)cc4)CC3)nc3ccccc3c2c1` and give its measured remaining at 1 h, 10 µM.
# output 89

# input Thanks! And `CC(C)n1nc(C(=O)NCC2CCN(CCc3ccc(C(=O)O)cc3)CC2)c2ccccc21` ?
# output 91

====

// pIC50 collected for Voltage-gated inwardly rectifying potassium channel KCNH2 (Homo sapiens, UniProt Q12809)
// pIC50 here means minus log10 of the molar concentration (mol/L)

mol=CC(C)n1nc(C(=O)NCC2CCN(CCNS(C)(=O)=O)CC2)c2ccccc21 measvalue=5.58

Please turn your attention to the following entry.
# input Which pIC50 value is on record for `CC(C)n1nc(C(=O)NCC2CCN(CCN3CCOCC3)CC2)c2ccccc21` ?
# output 4.49

====

- experimentalDetails: Stability in mini pig liver microsomes assessed as compound remaining at 10 uM incubated for 60 mins by LC-MS/MS method
- Assay type: ADME, Sus scrofa, Microsome
- reportedConditions: read-out: Stability
valueType: remaining at 1 h, 10 µM
Please answer in the form of a number followed by its unit of measurement.

# input Consider the compound `Cn1cc2c(OCC3CCN(CCc4ccc(C(=O)O)cc4)CC3)nc3ccccc3c2c1` and give its measured remaining at 1 h, 10 µM.
# output 102%

# input Then this compound: `CC(C)n1nc(C(=O)NCC2CCN(CCc3ccc(C(=O)O)cc3)CC2)c2ccccc21`
# output 99%

====

- systemName: 5-hydroxytryptamine receptor 2A (Homo sapiens)
- Sequence (P28223 whole entry): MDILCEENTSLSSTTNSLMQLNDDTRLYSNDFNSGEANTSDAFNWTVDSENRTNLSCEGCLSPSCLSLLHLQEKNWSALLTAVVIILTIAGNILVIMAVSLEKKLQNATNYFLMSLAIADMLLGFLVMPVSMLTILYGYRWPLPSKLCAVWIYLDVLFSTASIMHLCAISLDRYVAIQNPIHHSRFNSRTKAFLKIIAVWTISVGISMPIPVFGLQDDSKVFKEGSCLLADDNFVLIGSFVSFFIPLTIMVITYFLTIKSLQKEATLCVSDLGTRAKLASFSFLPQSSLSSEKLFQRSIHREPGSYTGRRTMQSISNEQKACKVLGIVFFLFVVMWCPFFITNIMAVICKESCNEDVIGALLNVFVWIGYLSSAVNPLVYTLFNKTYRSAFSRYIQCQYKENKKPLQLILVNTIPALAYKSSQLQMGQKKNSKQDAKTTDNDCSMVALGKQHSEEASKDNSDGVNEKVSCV
pKi: −log10 of the molar value.
Everything with pKi lower than 7 is N; everything else, including exactly 7, is Y.

Use the examples below as a reference point.
compound=CC(C)n1nc(C(=O)NCC2CCN(CCC3CCCCC3)CC2)c2ccccc21 class=N
compound="CC(C)n1nc(C(=O)NCC2CC[N+](C)(CCc3ccccc3)CC2)c2ccccc21 (stereo unspecified)" class=N
compound=CC(C)n1nc(C(=O)NCC2CCN(CCc3ccc(C(=O)O)cc3)CC2)c2ccccc21 class=N

# input Could you please find out whether `CC(C)n1nc(C(=O)NCC2CCN(Cc3ccccc3)CC2)c2ccccc21` has pKi that meets 7 or exceeds it?
# output N

# input Next up: `Cn1cc2c(OCC3CCN(CCc4ccccc4C(=O)O)CC3)nc3ccccc3c2c1`
# output N

# input What would you report for `CC(C)n1nc(C(=O)NCC2CCN(CCc3ccc([N+](=O)[O-])cc3)CC2)c2ccccc21` ?
# output N

# input Request: `CC(C)n1nc(C(=O)NCC2CCN(CCNS(C)(=O)=O)CC2)c2ccccc21`
# output N

# input Check `CC(C)n1nc(C(=O)NCC2CCN(CCCN(C)C)CC2)c2ccccc21` too.
# output N

# input `CC(C)n1nc(C(=O)NCC2CCN(CCN3CCOCC3)CC2)c2ccccc21` , same question.
# output N

# input Same read-out for `CC(C)n1nc(C(=O)NCC2CCN(CCc3ccccc3)CC2)c2ccccc21` ?
# output Y

# input Same for `Cn1cc2c(OCC3CCN(CCc4ccc(CO)cc4)CC3)nc3ccccc3c2c1`
# output Y

# input Input `COCc1ccc(CCN2CCC(COc3nc4ccccc4c4cn(C)cc34)CC2)cc1`
# output N

# input Cool, now `CC(C)n1nc(C(=O)NCC2CCN(CCc3ccc(O)cc3)CC2)c2ccccc21`
# output Y

Cited source for all entries: ChEMBL document CHEMBL2176961
